- Test target: Rap guanine nucleotide exchange factor 3 (Homo sapiens)
- Experimental details: Confirmatory qHTS for antagonist of cAMP-regulated guanine nucleotide exchange factor 3 (EPAC1) (AID 1645880); also: nearly all actives have a fitted effect of over 55% in size
- Measurement parameters: EPAC1 Rap1B-BODIPY-GDP exchange, fluorescence
Inconclusive results are not listed. Calls of active or inactive are those of the source. Calls follow the shape of the dose curve; as a rule, active = well fitted inhibition curve with a large enough effect; inconclusive = small, poorly fitted or top-dose-only effect; inactive = no such curve, though single readings can be large or run the other way.
Write down one outcome, taken from active, inactive

COc1ccc(/C=N/Nc2nnc(C)n2N)cc1OC(C)=O | inactive
COc1c(O)cc2oc(-c3ccc(O)c(O)c3)cc(=O)c2c1O | active
Nc1nc2ccccc2n1S(=O)(=O)c1ccc([N+](=O)[O-])cc1 | inactive
CC(=O)NC(c1ccc(Cl)cc1)c1ccc2cccnc2c1O (configuration not stated) | inactive
COC(=O)c1sc(S(=O)(=O)N2CCCCC2C)c(C(=O)OC)c1C (configuration not stated) | inactive

Prompt: Could you check what this test reported for CC1(C(=O)NS(=O)(=O)c2cccc(Cl)c2)CCN1C(=O)C1(c2ccc(Cl)cc2)CCC1 (configuration not stated) ?
Completion: active

Prompt: # lookup: test call for "Cc1ccc(C(=O)NCCCNC(=O)c2ccc(Cl)cc2)cn1"
Completion: inactive

Prompt: I'd appreciate the recorded outcome for CN(C)c1ccc(C2C=C(c3ccc(Cl)cc3OC(F)F)Nc3ncnn32)cc1 (configuration not stated) from this test.
Completion: inactive

Prompt: Record lookup: outcome of this test for Cc1[nH]n(-c2ncc(-c3ccccc3)s2)c(=O)c1C(c1ccc(Br)cc1)C(C#N)C#N (configuration not stated) ?
Completion: active

Prompt: Which outcome was entered for the molecule CC(=O)Oc1c2c(c3c(c1CC=C(C)C)O[C@@]14C(=CC5CC1C(C)(C)OC4(C/C=C(\C)C(=O)O)C5=O)C3=O)OC(C)(CCC=C(C)C)C=C2 (some centres not stated) in this test?
Completion: active

Prompt: For "Cc1ccc(C)c(NC(=O)COC(=O)COc2cccc3c2OC(C)(C)C3)c1" , which call appears in the assay record?
Completion: inactive

Prompt: Given "COc1ccc(CNC(=S)N/N=C/c2ccc(OC)c(OC)c2)cc1" , state the outcome it received in this test.
Completion: inactive

Prompt: Which outcome was entered for the molecule "COCCN(CCOC)Cc1cc(=O)oc2cc(OC)c(Cl)cc12" in this test?
Completion: inactive

Prompt: Please indicate how the test categorized "COc1ccc(C(=O)Nc2cccc(/C=C(/CCC(=O)O)c3nc4ccccc4s3)c2)cc1" .
Completion: active

Prompt: Assay result, entry "COC(=O)C1=CN(Cc2cccs2)C=C(C(=O)OC)C1c1cccc(O)c1" — outcome?
Completion: inactive

Prompt: For "Cc1ccc(C(=O)N2CCN(c3ccccc3)CC2)cc1S(=O)(=O)N1CCOCC1" , what call appears in the results of this test?
Completion: inactive

Prompt: Would you mind telling me which call this test gave "C=C(C)Cn1c(C)cc(C)c(S(=O)(=O)c2ccccc2C)c1=O" ?
Completion: inactive

Prompt: For "Cc1nc2ccccc2c(=O)n1N(c1ccccc1)c1ccccc1" , what call appears in the results of this test?
Completion: inactive

Prompt: Could you please tell me the result logged for "C=CCN(CC=C)C(=O)COn1nnc2ccc(S(=O)(=O)N3CCOCC3)cc21" in this assay?
Completion: inactive

Prompt: # fetch the recorded call for "COc1ccc2oc(C)c(C(=O)c3ccccc3)c2c1" here
Completion: inactive

Prompt: Hi, do you know how "COc1ccc(/C=C2\N=C(SC)N(c3ccccc3OC)C2=O)cc1" came out in this test?
Completion: inactive

Prompt: Per the assay record, what outcome was assigned to Cc1cc(C)c2c(CN3CCCCC3C)cc(=O)oc2c1 (configuration not stated) ?
Completion: inactive

Prompt: Fill in: this test's call for COc1ccccc1N1CCN(S(=O)(=O)c2ccc3c(c2)NC(=O)C(C)C(=O)N3)CC1 (configuration not stated) is ___
Completion: inactive

###

- Test system: TAB113
- Experimental details: qHTS profiling for inhibitors of Plasmodium falciparum proliferation (AID 504749); also: nearly all actives have a fitted effect of over 60% in size; also: potency is read from the fitted curve at half-maximal effect
- Measurement parameters: P. falciparum in erythrocytes, SYBR Green DNA, 72 h; series mostly up to 28.7 µM
Results filed as inconclusive are left out. The source made the active and inactive calls. The call rests on the fitted dose curve; in most records, active means well fitted inhibition curve with a large enough effect; inconclusive means small, poorly fitted or top-dose-only effect; inactive means flat fitted curve, though single readings scatter.
Measured endpoint: Potency

CCN1/C(=C/C=C/C=C/c2sc3ccccc3[n+]2CC)Sc2ccccc21 | 5.01 µM (active)
CC(C)CN(C[C@@H](O)[C@H](Cc1ccccc1)NC(=O)O[C@H]1CCOC1)S(=O)(=O)c1ccc(N)cc1 | inactive
O=C(O)c1cc(O)c2c(c1)[C@H]([C@H]1c3cc(C(=O)O)cc(O)c3C(=O)c3c(O[C@@H]4OC(CO)C(O)C(O)C4O)cccc31)c1cccc(O[C@@H]3OC(CO)C(O)C(O)C3O)c1C2=O (stereo not given in full) | inactive
C/C=C\c1ccc(OC)cc1 | inactive
CC(C)(CO)C(O)C(=O)NCCCC(=O)O (stereo not given) | inactive

Kindly review the next compound as well.
What the record says about S=C1NC=NC2N=CNC12 (stereo not given) : Potency is inactive

###

- Test target: Rap guanine nucleotide exchange factor 4 (Homo sapiens)
- Experimental details: Confirmatory qHTS for agonist of cAMP-regulated guanine nucleotide exchange factor 4 (EPAC2) (AID 1645884);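 also: nucleotide exchange releases bodipy-GDP from Rap1 and this lowers its fluorescence; nearly all actives have a fitted effect of over 65% in size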
- Measurement parameters: EPAC2 GEF activity, Rap1B-BODIPY-GDP fluorescence; series mostly up to 154 µM
Inconclusive results are not listed. Calls of active or inactive are those of the source. The call rests on the fitted dose curve; in most records, active means well fitted activation curve with a large enough effect; inconclusive means small, poorly fitted or top-dose-only effect; inactive means no such curve, though single readings can be large or run the other way.
Measured endpoint: activation

COc1cccc2c1OC1(C)CC2/C(=C(\C)O)C(=O)N1 (stereo not given) | inactive
Clc1cccc(-c2nc3ccc(Cl)cn3c2Cc2ccsc2)c1 | inactive
O=C(NCCCN1CCOCC1)c1ccc2c(c1)N(Cc1cccc(Cl)c1)C(=O)c1ccccc1S2 | inactive

###

- Test target: Glutathione peroxidase 1 (Homo sapiens) (UniProt P07203)
- Sequence (P07203 whole entry, looked up): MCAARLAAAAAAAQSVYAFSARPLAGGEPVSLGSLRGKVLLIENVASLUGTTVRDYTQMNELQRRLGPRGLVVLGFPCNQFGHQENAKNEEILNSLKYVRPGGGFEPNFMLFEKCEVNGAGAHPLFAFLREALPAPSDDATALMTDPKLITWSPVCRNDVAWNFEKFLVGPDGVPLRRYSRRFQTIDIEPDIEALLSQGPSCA
- Experimental details: Primary qHTS Assay for Inhibitors of Recombinant Selenoprotein Glutathione Peroxidase 1 (GPX1) (AID 1845191); also: nearly all actives have a fitted effect of over 65% in size
- Measurement parameters: recombinant GPX1, GR-coupled NADPH fluorescence, 15 min; series mostly up to 48.8 µM
Inconclusive results are not listed. Calls of active or inactive are those of the source. The call rests on the fitted dose curve; in most records, active means well fitted inhibition curve with a large enough effect; inconclusive means small, poorly fitted or top-dose-only effect; inactive means flat fitted curve, though single readings scatter.
Measured endpoint: outcome

[2H]N[C@@H](Cc1ccccc1)C(=O)N1CCC[C@H]1C(=O)N[C@@H](CCCNC(=N)N)C(=O)N1CCC[C@H]1C(=O)NCC(=O)NCC(=O)NCC(=O)NCC(=O)N[C@@H](CC(N)=O)C(=O)NCC(=O)N[C@@H](CC(=O)O)C(=O)N[C@@H](Cc1ccccc1)C(=O)N[C@@H](CCC(=O)O)C(=O)N[C@@H](CCC(=O)O)C(=O)N[C@H](C(=O)N1CCC[C@H]1C(=O)N[C@@H](CCC(=O)O)C(=O)N[C@@H](CCC(=O)O)C(=O)N[C@@H](Cc1ccc(O)cc1)C(=O)N[C@@H](CC(C)C)C(=O)O)[C@@H](C)CC | inactive [at 9.52 µM]
CC(C)OC(=O)CCC/C=C\C[C@@H]1[C@@H](CC[C@@H](O)CCc2ccccc2)[C@H](O)C[C@@H]1O | inactive [at 9.52 µM]
C[C@]12C=CC(=O)C=C1CC[C@@H]1[C@@H]2[C@@H](O)C[C@@]2(C)[C@H]1CC[C@]2(O)C(=O)COP(=O)(O)O | inactive [at 9.52 µM]

###

- Tested on: CP268
- Experimental details: qHTS profiling for inhibitors of Plasmodium falciparum proliferation (AID 504749); also: nearly all actives have a fitted effect of over 60% in size
- Measurement parameters: P. falciparum in erythrocytes, SYBR Green DNA, 72 h; series mostly up to 28.7 µM
Inconclusive results are not listed. The source made the active and inactive calls. The call rests on the fitted dose curve; in most records, active means well fitted inhibition curve with a large enough effect; inconclusive means small, poorly fitted or top-dose-only effect; inactive means flat fitted curve, though single readings scatter.
Classes to choose from: 1 for active, -1 for inactive

Solved entries:
CO[C@@H]1[C@@H](OC2OC(C)C(OC3CC(C)(O)C(OC(=O)CC(C)C)C(C)O3)C(N(C)C)C2O)[C@@H](CC=O)C[C@@H](C)C(=O)/C=C\C2O[C@H]2C[C@@H](C)OC(=O)C[C@H]1OC(C)=O (stereo not given in full) | 1
C1OCOCO1 | -1
Cc1cc(CC(C)CC(C)(C)C)n(O)c(=O)c1 (stereo not given) | 1
CC(=O)OC1CC2CCC1(C)C2(C)C (stereo not given) | -1

As a next step, examine the compound that follows.
Prompt: Name the outcome recorded for "CN1CC[C@H](CN2c3ccccc3Sc3ccccc32)C1" in the assay.
Completion: 1

###

- Test system: CP250
- Experimental details: qHTS profiling for inhibitors of Plasmodium falciparum proliferation (AID 504749); also: nearly all actives have a fitted effect of over 60% in size
- Measurement parameters: P. falciparum in erythrocytes, SYBR Green DNA, 72 h; series mostly up to 28.7 µM
Results filed as inconclusive are left out. The source made the active and inactive calls. Calls come from the whole dose curve; as a rule, active = well fitted inhibition curve with a large enough effect; inconclusive = small, poorly fitted or top-dose-only effect; inactive = flat fitted curve, though single readings scatter. Bridge positions count the residues as written; N and C are the ends. Square brackets hold non-standard residues; d marks the D form. Peptide text beside a SMILES is read from it. * marks the point of attachment. Octanoyl(6-Me) = CCC(C)CCCCC(=O)*; Dab = NCC[CH](N)C(=O)O
Respond only with the outcome that fits, drawn from active, inactive

Reference set, count: 8
CC1(C)S[C@@H]2[C@H](NC(=O)COc3ccccc3)C(=O)N2[C@H]1C(=O)O | inactive
CC(=O)OC1CC2CCC1(C)C2(C)C (stereo unspecified) | inactive
CC1CCC(C(C)C)C(OC(=O)c2ccccc2O)C1 (stereo unspecified) | inactive
CN(C)CCCCCCN(C)C | inactive
NC1=NC(S)C2N=CN=C2N1 (stereo unspecified) | inactive
CCC(C)CCCCC(=O)NC(CCN)C(=O)NC(C(=O)NC(CCN)C(=O)NC1CCNC(=O)C(C(C)O)NC(=O)C(CCN)NC(=O)C(CCN)NC(=O)C(CC(C)C)NC(=O)C(Cc2ccccc2)NC(=O)C(CCN)NC1=O)C(C)O (stereo unspecified) ({Octanoyl(6-Me)}-[Dab]T[Dab][Dab][Dab]FL[Dab][Dab]T; lactam 4-C; configuration not given here) | inactive
C/C=C\c1ccc(OC)cc1 | inactive
CCN1/C(=C/C=C/C=C/c2sc3ccccc3[n+]2CC)Sc2ccccc21 | active

Prompt: Per the records of this test, what outcome belongs to S=C1NC=NC2N=CNC12 (stereo unspecified) ?
Completion: inactive

Prompt: Which outcome did this test record for the compound Cc1cc(CC(C)CC(C)(C)C)n(O)c(=O)c1 (stereo unspecified) ?
Completion: active

Prompt: Lab log entry: CCC(C)n1ncn(-c2ccc(N3CCN(c4ccc(OCC5COC(Cn6cncn6)(c6ccc(Cl)cc6Cl)O5)cc4)CC3)cc2)c1=O (stereo unspecified) — outcome as called in the assay?
Completion: inactive

The reported numbers originate from PubChem BioAssay (NCATS).
